experiment: NCI Yeast Anticancer Drug Screen. Data for the bub3 strain (AID 167); details: S. cerevisiae bub3 mutant strain, at 50.0 µM, active compounds read high
About 79,000 compounds went through this panel and 15% of them were active in at least one assay; those are over-represented in the sample as a whole.
# growth inhibition per record follows
Value expressed in %; do not type the unit.

Completed entries (count: 10):
molecule="O=C(O)C1C=CCC2C(O)C=CC(=O)C12 (centres undefined)" unit_text=% recorded_value=-11
molecule=COc1cccc(CCNC(=O)Cc2ccccc2CCO)c1 unit_text=% recorded_value=-37.9
molecule=Cc1ccc(S(=O)(=O)NCNS(=O)(=O)c2ccc(C)cc2)cc1 unit_text=% recorded_value=-15.8
molecule="CC1OC(OC(=O)c2ccc([N+](=O)[O-])cc2)CC(OC(=O)c2ccc([N+](=O)[O-])cc2)C1OC(=O)c1ccc([N+](=O)[O-])cc1 (centres undefined)" unit_text=% recorded_value=1.6
molecule="C/[N+]([O-])=N/COC1OC(COC2OCC(O)C(O)C2O)C(O)C(O)C1O (centres undefined)" unit_text=% recorded_value=8.85
molecule=CCC(=O)Oc1ccc(C(=O)O)cc1 unit_text=% recorded_value=-26.5
molecule=NC(=O)Oc1cccc(OC(N)=O)c1 unit_text=% recorded_value=18.8
molecule=COc1ccc(Cc2cn(C)cc(Cc3ccc(OC)cc3)c2=O)cc1 unit_text=% recorded_value=-1.2
molecule=CN1CCC/C1=C/C(=O)c1ccccc1[N+](=O)[O-] unit_text=% recorded_value=9.6
molecule=CCOC(=O)c1ccc(NC(=S)N(CCC#N)C2CCCCC2)cc1 unit_text=% recorded_value=48.4

Look up growth inhibition of NC1C([O-])OC(CO)C(O)C1O.O=C1OC(C(O)CO)C([O-])=C1[OH2+].[Cu+2] (centres undefined) and report it.
-1.55

Look up growth inhibition of `Cc1cc2c(=O)c3ccccc3[nH]c2c(C(N)=O)c1C` and report it.
-10.5

Look up growth inhibition of `O=C1CN(CCCO)CC(=O)N2Cc3ccccc3CN12` and report it.
-6.85

Look up growth inhibition of CC(I)CNc1ccc(C(=O)O)c(O)c1 (centres undefined) and report it.
11.6

Look up growth inhibition of `Cc1cc(CN(C)C)cc(C(C)C)c1O` and report it.
12.8

###

Test: NCI Yeast Anticancer Drug Screen. Data for the cln2 rad14 strain (AID 165);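 note: 0% = growth equal to vehicle treated cultures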
Settings: S. cerevisiae cln2 rad14 strain, at 50.0 µM, active compounds read high
Protocol: Growth inhibition of yeast strains with defined genetic alterations is measured as a screen for potential anti-cancer activity. Selected strains with alterations in DNA damage repair or cell cycle control were exposed to compounds and growth inhibition was measured relative to vehicle treated controls. The strain used in this assay is cln2 rad14
The panel holds about 79,000 compounds, 15% with a hit somewhere; the sample as a whole holds those more often.
measure name: growth inhibition (%)
Value expressed in %; do not type the unit.

Completed entries (count: 5):
compound="CCC1(C(=O)O)NC(=O)NC1=O (configuration not stated)" measure_name="growth inhibition" recorded_value=-8.95
compound=CCCCC(CC)(CO)CO measure_name="growth inhibition" recorded_value=1.05
compound="O=C(CCC1CCCCC1)OCC1CCCO1 (configuration not stated)" measure_name="growth inhibition" recorded_value=3.75
compound=N#Cc1c(N)nc([Se]CC(=O)c2ccc(Cl)cc2)c(C#N)c1-c1ccco1 measure_name="growth inhibition" recorded_value=9.4
compound="CC(NC(=O)c1ccccc1)c1ccc[nH]1 (configuration not stated)" measure_name="growth inhibition" recorded_value=-15.2

Note: attention shifts to another entry.
Look up growth inhibition of `CCOC(=O)c1ccc2c3c(ccc([N+](=O)[O-])c13)CC2` and report it.
-1.9

###

assay: NCI Yeast Anticancer Drug Screen. Data for the sgs1 mgt1 strain (AID 161);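 note: 0% = growth of cultures given vehicle only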; details: S. cerevisiae sgs1 mgt1 strain, at 50.0 µM, active compounds read high
Compounds without any hit were thinned out: in the full panel of roughly 79,000, 15% have a hit. The source made the active and inactive calls. Cut-off read from the data, not from the text of the source: active = growth inhibition above about 70%; inactive = the rest.
measure name: growth inhibition

Completed entries (count: 10):
compound=O=c1cc(-c2ccccc2)oc2c(N=Nc3ccccc3)ccc(O)c12 recorded_value="22.9% (inactive)"
compound=O=S(=O)([O-])c1ccc2c[n+]3ccccc3cc2c1 recorded_value="-0.95% (inactive)"
compound="CCC(/C=C/C(C)C1CCC2C3CC=C4CC(OC(=O)Nc5ccccc5)CCC4(C)C3CCC12C)C(C)C (stereo not given)" recorded_value="-4.9% (inactive)"
compound=CC(C)(c1ccc(C(=O)O)cc1)c1ccc(C(=O)O)cc1 recorded_value="-1.1% (inactive)"
compound=COc1cc2ccccc2cc1CO recorded_value="-3.8% (inactive)"
compound=O=C(Nc1cc([N+](=O)[O-])ccc1F)Oc1ccc(OCc2ccccc2)cc1 recorded_value="9.9% (inactive)"
compound=N#Cc1c2c(c(=O)n3c1[nH]c1ccccc13)CCCC2 recorded_value="19.8% (inactive)"
compound=NC(=O)c1csc(Nc2csc(N)n2)n1 recorded_value="-6.35% (inactive)"
compound=CC(=O)[O][Ga]([Cl])[O]C(C)=O recorded_value="34.1% (inactive)"
compound=CCOc1ccc(Nc2ncnc3sc4c(c23)CCCC4)cc1 recorded_value="-1.15% (inactive)"

Look up growth inhibition of `CCOC(=O)c1[nH]c2nc(N)ncc2c(=O)c1C` and report it.
-0.15% (inactive)

Look up growth inhibition of `C=C(Cl)CSC(C)(C)C` and report it.
-6.7% (inactive)

Look up growth inhibition of `COC(=O)c1ccc(-n2c(C)nc(=O)c(-c3ccccc3)c2C)cc1` and report it.
12.4% (inactive)

Look up growth inhibition of `C[n+]1cccc(C(=O)O)c1` and report it.
8.65% (inactive)

Look up growth inhibition of `CNc1ccccc1C(=O)N/N=C/c1ccc(O)c(OC)c1` and report it.
0.85% (inactive)

Look up growth inhibition of `CC(=O)N(CCCc1ccccc1)C(C)(C)C` and report it.
-3.05% (inactive)

Look up growth inhibition of `CCOC(=O)Cc1ccc2c(c1)sc1nc(-c3ccc(OC)cc3)cn12` and report it.
21.2% (inactive)

Look up growth inhibition of `c1ccc2[nH]c3[nH]c4[nH]c5ccccc5[nH]c4[nH]c3[nH]c2c1` and report it.
-20.6% (inactive)

Look up growth inhibition of CC1(C(=O)O)CCCC2(C)c3ccc(O)cc3CCC12 (stereo not given) and report it.
61.2% (inactive)

Look up growth inhibition of `CC(=O)Oc1ccc(NCNc2ccc(OC(C)=O)cc2)cc1` and report it.
-3.2% (inactive)

Look up growth inhibition of `O=C(/C=C\c1ccccc1)c1ccc(-c2cccc(-c3ccccc3)c2)cc1` and report it.
7.5% (inactive)

Look up growth inhibition of CC1(C)OC2C(=O)OC(COCc3ccccc3)C2O1 (stereo not given) and report it.
4.25% (inactive)

Look up growth inhibition of `C/C=C(\C)c1cc(O)c(C)c2c1Oc1cc(O)c(Cl)c(C)c1C(=O)O2` and report it.
93.9% (active)

Look up growth inhibition of `COc1ccccc1C/C(=N/O)c1ccccc1OC` and report it.
14.1% (inactive)

Look up growth inhibition of `Brc1ccc(-c2oc3c4ccccc4c4ccccc4c3c2-c2ccc(Br)cc2)cc1` and report it.
17.8% (inactive)

###

# growth inhibition per record follows
test: NCI Yeast Anticancer Drug Screen. Data for the rad50 strain (AID 155);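 note: 0% = growth of vehicle-only cultures of the same strain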; settings: S. cerevisiae rad50 strain growth inhibition; at 50.0 µM; active compounds read high
This is part of a sample that, as a whole, favours compounds with a hit. Of some 79,000 tested, about 15% had one in any assay. The source made the active and inactive calls. No stated cut-off is given here; in the data, active means growth inhibition above about 70%; inactive means the rest.

compound=NNC(=O)c1ccc[n+](CCc2ccccc2)c1 measure_name="growth inhibition" recorded_value="-1.25% (inactive)"
compound=NC(=O)N/N=C/c1ccc2c(c1)OCO2 measure_name="growth inhibition" recorded_value="20.1% (inactive)"
compound="CC1(c2ccc3cccc(F)c3c2)OC(=O)c2ccccc21 (configuration not stated)" measure_name="growth inhibition" recorded_value="2% (inactive)"

Look up growth inhibition of `CNC(=O)OCc1c(COC(=O)NC)c(-c2ccc(S(=O)(=O)c3ccccc3)cc2)n(C)c1C` and report it.
-5.85% (inactive)

Look up growth inhibition of `[Cl][Eu]([Cl])[Cl]` and report it.
22.4% (inactive)

Look up growth inhibition of CC1OC(OC2C(OC(=O)[C@]34CCC(C)(C)C[C@H]3C3=CC[C@@H]5[C@@]6(C)CC[C@H](OC7OC(CO)C(O)C(O)C7OC7OC(CO)C(O)C(O)C7O)C(C)(C)[C@@H]6CC[C@@]5(C)[C@]3(C)CC4)OCC(O)C2O)C(O)C(O)C1OC1OCC(O)C(O)C1O (some centres not stated) and report it.
-24.8% (inactive)

Look up growth inhibition of `O=c1c2cc3c(=O)n(O)c(=O)c3cc2c(=O)n1O` and report it.
12.4% (inactive)
